Measured attribute: melting point

Answered examples (5):
INSERT INTO results (structure, measured_attribute, val) VALUES
  ('CCN(C(=O)CCS)c1cn(-c2cccnc2)nc1Cl', 'melting point', '70 to 73 °C'),
  ('CC(=O)SCCC(=O)Nc1c[nH]nc1Cl', 'melting point', '140 to 143 °C'),
  ('C=CC(=O)Nc1cn(-c2cccnc2)nc1Cl', 'melting point', '148 to 153 °C'),
  ('C=CC(=O)N(CC)c1c[nH]nc1Cl', 'melting point', '156 to 160 °C'),
  ('C=CC(=O)Nc1c[nH]nc1Cl', 'melting point', '182 °C (dec.)');

Prompt line: Recorded melting point of `CCN(C(=O)CCSC(C)=O)c1c[nH]nc1Cl` , please.
Response line: 98 to 99 °C
